Target: Myosin VI tail (MVITAIL 814-1253) (human)
Experiment Notes: FRET or BRET; AF555-labelled pool titrated against the FITC-labelled pool of the same construct in the presence of 20 uM NDP52; monomer to dimer; 25 C, 50 mM Tris-HCl pH 7.5, 150 mM NaCl, 1 mM DTT
Measurement Name: Kd (nM)

{"Substance": "Myosin VI tail (MVITAIL 814-1253) (domain or fragment)", "Target": "Myosin VI tail (MVITAIL 814-1253) (human)", "Value Unit": "nM", "Recorded Value": 2300}
